tested on: LXRa homodimer (NR concentration 270 nM); test: PBM binding z-score (relative to random genomic background probes); higher = stronger binding; sequences stand for … in GC…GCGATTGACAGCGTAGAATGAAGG
Hi, to clarify the labels: fulfilled covers PBM binding z-score from 0.2 upward, not fulfilled covers anything below 0.2.

Test whether the sequence `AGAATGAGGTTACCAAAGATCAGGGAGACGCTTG` records PBM binding z-score of 0.2 or higher.
not fulfilled

Test whether the sequence `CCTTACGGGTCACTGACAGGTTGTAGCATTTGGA` records PBM binding z-score of 0.2 or higher.
not fulfilled

Test whether the sequence `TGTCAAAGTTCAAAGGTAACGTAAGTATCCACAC` records PBM binding z-score of 0.2 or higher.
fulfilled

Test whether the sequence `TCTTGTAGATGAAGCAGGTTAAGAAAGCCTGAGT` records PBM binding z-score of 0.2 or higher.
not fulfilled

Test whether the sequence `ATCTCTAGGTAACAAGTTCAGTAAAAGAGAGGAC` records PBM binding z-score of 0.2 or higher.
fulfilled

----------
test system: PPARg:RXRa (NR concentration 180 nM, RXRa partner concentration 90 nM); experiment: PBM binding z-score (relative to random genomic background probes); higher = stronger binding; sequences stand for … in GC…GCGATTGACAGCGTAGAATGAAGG
Hi, to clarify the labels: True covers PBM binding z-score from 2 upward, False covers anything below 2.

Test whether the sequence `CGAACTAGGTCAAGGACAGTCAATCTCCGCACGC` records PBM binding z-score of 2 or higher.
True

Test whether the sequence `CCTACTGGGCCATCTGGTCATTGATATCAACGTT` records PBM binding z-score of 2 or higher.
False

Test whether the sequence `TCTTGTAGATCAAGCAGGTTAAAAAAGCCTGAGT` records PBM binding z-score of 2 or higher.
False

Test whether the sequence `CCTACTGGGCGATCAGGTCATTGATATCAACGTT` records PBM binding z-score of 2 or higher.
False

Test whether the sequence `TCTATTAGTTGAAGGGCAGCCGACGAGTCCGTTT` records PBM binding z-score of 2 or higher.
False

Test whether the sequence `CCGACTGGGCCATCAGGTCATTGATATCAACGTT` records PBM binding z-score of 2 or higher.
False

Test whether the sequence `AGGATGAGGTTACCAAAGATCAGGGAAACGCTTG` records PBM binding z-score of 2 or higher.
False

Test whether the sequence `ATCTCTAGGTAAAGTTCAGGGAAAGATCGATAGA` records PBM binding z-score of 2 or higher.
True

Test whether the sequence `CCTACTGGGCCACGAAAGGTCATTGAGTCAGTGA` records PBM binding z-score of 2 or higher.
True

Test whether the sequence `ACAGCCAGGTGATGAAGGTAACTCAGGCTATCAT` records PBM binding z-score of 2 or higher.
False

Test whether the sequence `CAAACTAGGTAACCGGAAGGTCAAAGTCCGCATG` records PBM binding z-score of 2 or higher.
True

Test whether the sequence `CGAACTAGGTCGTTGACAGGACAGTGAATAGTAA` records PBM binding z-score of 2 or higher.
True

----------
test system: VDR homodimer (NR concentration 270 nM); test: PBM binding z-score (relative to random genomic background probes); higher = stronger binding; sequences stand for … in GC…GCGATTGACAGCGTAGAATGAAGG
QUANTITY_NAME: PBM binding z-score
Just the number, please, no unit attached.

Report measured PBM binding z-score; entry is `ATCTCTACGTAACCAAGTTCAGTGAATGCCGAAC`
2.27

Report measured PBM binding z-score; entry is `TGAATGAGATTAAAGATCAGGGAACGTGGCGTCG`
-0.27

Report measured PBM binding z-score; entry is `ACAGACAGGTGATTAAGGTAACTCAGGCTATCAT`
0.0908

Report measured PBM binding z-score; entry is `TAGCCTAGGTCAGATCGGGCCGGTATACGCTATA`
-0.328

Report measured PBM binding z-score; entry is `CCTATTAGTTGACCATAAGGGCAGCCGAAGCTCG`
0.242

Report measured PBM binding z-score; entry is `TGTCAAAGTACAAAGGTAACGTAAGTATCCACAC`
0.229

Report measured PBM binding z-score; entry is `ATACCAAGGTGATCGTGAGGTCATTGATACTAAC`
4.77

Report measured PBM binding z-score; entry is `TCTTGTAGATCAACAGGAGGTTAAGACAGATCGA`
-0.102

Report measured PBM binding z-score; entry is `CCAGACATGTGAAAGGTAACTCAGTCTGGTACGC`
0.204

Report measured PBM binding z-score; entry is `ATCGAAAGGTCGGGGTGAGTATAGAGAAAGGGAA`
1.52

Report measured PBM binding z-score; entry is `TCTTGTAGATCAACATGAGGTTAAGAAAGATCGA`
0.413

Report measured PBM binding z-score; entry is `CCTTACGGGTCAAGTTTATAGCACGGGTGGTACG`
3.09

Source listed as the supplement of paper PMC6555819.
